method: chemical recovery by SPE of plasma after PDMS sampling; higher = better extraction;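 further: over 400 spiked chemicals quantified by LC-HRMS or GC-HRMS via internal standard calibration, recovery relative to spike mix added to unspiked plasma extract to correct matrix effects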
details: pooled human plasma; extraction method: HLB SPE of plasma after PES; equilibration time (d): 6
Exercise: state measured chemical recovery by SPE of plasma for each of the compounds provided.
Report the figure in % without appending any unit label.

Value of chemical recovery by SPE of plasma reported for the compound "CCc1cccc(C)c1N(C(=O)CS(=O)(=O)O)[C@@H](C)C(=O)O" is 33.9

Oc1ccc(Cl)cc1Cc1ccccc1 [Chlorophene] yielded chemical recovery by SPE of plasma of 28.6

The compound listed as Clc1ccc(Cl)c(-c2cc(Cl)ccc2Cl)c1 [PCB52] shows chemical recovery by SPE of plasma equal to 1.09

The recorded chemical recovery by SPE of plasma for entry c1ccc2[nH]nnc2c1 [1H-Benzotriazole] equals 39.9

// sample Cc1cnc2c(C(=O)O)c(Cl)ccc2c1 [Quinmerac] , its chemical recovery by SPE of plasma was 56.5

Lookup result for CN1CCN(C)C1=O [1,3-Dimethyl-2-imidazolidinone] ; measured chemical recovery by SPE of plasma: 8.78
